Where these numbers come from: ChEMBL document CHEMBL1125021

assay: Selectivity ratio as the ratio of IC50 values for [3H]CPP/[3H]-gly
readoutType: Ratio

{"smilesNotation": "O=C(O)c1cc(O)c2ccc(Cl)cc2n1", "Ratio": 405}

(a) O=C(O)c1cc(O)c2c(Cl)cc(Cl)cc2n1
(b) O=C(O)CNc1cc(C(=O)O)nc2cc(Cl)cc(Cl)c12
(c) O=C(O)COc1cc(C(=O)O)nc2cc(Cl)cc(Cl)c12
Query string: Rank entries according to their Ratio, from the largest number down. Give me the labels in the order the question wants.
Result string: b, a, c
(b: 1400, a: 463, c: 99)

---

molecular target: Glutamate NMDA receptor; experiment: Binding activity against N-methyl-D-aspartate glutamate receptor in rat brain homogenate using [3H]-glycine as the radioligand.; format: tissue-based
readoutType: IC50 (µM)

(1) O=C(O)CNc1cc(C(=O)O)nc2cc(Cl)cc(Cl)c12
(2) O=C(O)COc1cc(C(=O)O)nc2cc(Cl)cc(Cl)c12
Query string: Problem: Given the entries 1 and 2 , determine which has the lower reported IC50. Answer by stating the label of the chosen item.
Result string: 1
(1: 0.1 µM, 2: 9 µM)

---

biological target: Glutamate NMDA receptor; test: Binding activity against N-methyl-D-aspartate glutamate receptor in rat brain homogenate using [3H]CPP as the radioligand.; format: tissue-based
readoutType: IC50 (µM)

(I) O=C(O)c1cc(O)c2c(Cl)cc(Cl)cc2n1
(II) O=C(O)CNc1cc(C(=O)O)nc2cc(Cl)cc(Cl)c12
(III) O=C(O)COc1cc(C(=O)O)nc2cc(Cl)cc(Cl)c12
Query string: Place the items in sequence of falling IC50. Give me the labels in the order the question wants.
Result string: III, II, I
(III: 893 µM, II: 140 µM, I: 37 µM)
